- Assayed system: Melanocortin receptor 5 (Homo sapiens, UniProt P33032); also: in other assays of this panel Not Active means under 50% inhibition at 10 µM
- Sequence (P33032 whole entry): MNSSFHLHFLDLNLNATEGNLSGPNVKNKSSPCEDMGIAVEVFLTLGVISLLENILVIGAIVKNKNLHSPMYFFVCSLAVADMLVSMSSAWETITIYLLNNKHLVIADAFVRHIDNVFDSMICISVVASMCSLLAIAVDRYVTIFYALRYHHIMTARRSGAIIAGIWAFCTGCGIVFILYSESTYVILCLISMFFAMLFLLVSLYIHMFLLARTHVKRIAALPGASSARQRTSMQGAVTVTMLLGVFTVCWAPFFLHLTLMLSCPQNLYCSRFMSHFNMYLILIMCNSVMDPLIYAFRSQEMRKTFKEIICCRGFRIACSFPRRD
- Format: cell membranes, HEK293, Membrane
- Stated conditions: hek293
Endpoint name: IC50

Sample answers from the record:
COBALT(II) ACETYLACETONATE | Not Active
POLYVINYL ALCOHOL | Not Active
STANNOUS FLUORIDE | Not Active
INSULIN HUMAN | Not Active

--- query ---
Exercise: // lookup IC50 for THIMEROSAL
Key: Not Active

---

- Assay explanation: DRUGMATRIX: Serotonin (5-Hydroxytryptamine) 5-HT3 radioligand binding (ligand: [3H] GR-65630)
- Type: cell membranes, Membrane
- Stated conditions: hek293; Not Active = under 50% inhibition at 10 µM
Endpoint name: IC50

COc1ncnc(NS(=O)(=O)c2ccc(N)cc2)c1OC | Not Active
NC[C@H]1O[C@H](O[C@H]2[C@H](O)[C@@H](O[C@H]3O[C@H](CO)[C@@H](O)[C@H](N)[C@H]3O)[C@H](N)C[C@@H]2N)[C@H](N)C[C@@H]1O | Not Active
CCC(=O)O[C@H]1[C@H](O[C@@H]2[C@@H](C)[C@H](O[C@H]3C[C@@](C)(OC)[C@@H](O)[C@H](C)O3)[C@@H](C)C(=O)O[C@H](CC)[C@@](C)(O)[C@H](O)[C@@H](C)C(=O)[C@H](C)C[C@@]2(C)O)O[C@H](C)C[C@@H]1N(C)C [ERYTHROMYCIN PROPIONATE] | Not Active

---

- Assayed system: Adenosine receptor A3 (Homo sapiens, UniProt P0DMS8); also: in other assays of this panel Not Active means under 50% inhibition at 10 µM;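 also: radioligand binding assay with AB-MECA serving as the labeled ligand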
- Sequence (P0DMS8 whole entry): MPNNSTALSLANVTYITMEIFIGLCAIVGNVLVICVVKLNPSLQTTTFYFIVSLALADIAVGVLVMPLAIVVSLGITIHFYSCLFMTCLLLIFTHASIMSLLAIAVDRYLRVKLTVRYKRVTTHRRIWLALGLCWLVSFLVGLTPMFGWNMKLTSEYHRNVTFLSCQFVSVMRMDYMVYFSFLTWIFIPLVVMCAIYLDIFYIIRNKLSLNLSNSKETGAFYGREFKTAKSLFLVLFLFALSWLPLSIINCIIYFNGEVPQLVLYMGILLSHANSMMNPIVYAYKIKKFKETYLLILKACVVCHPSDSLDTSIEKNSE
- Type: cell membranes, CHO-K1, Membrane
- Stated conditions: read-out: Ki
Endpoint name: Ki (µM)
Output spec: scalar in µM, unitless text.

C#C[C@]1(O)CC[C@H]2[C@@H]3CCc4cc(O)ccc4[C@H]3CC[C@@]21C [ETHINYL ESTRADIOL] | 18.6
CCOC(=O)C1=C(C)NC(C)=C(C(=O)OC)C1c1cccc(Cl)c1Cl (configuration not stated) [FELODIPINE] | 0.597
OCCN1CCN(CCCN2c3ccccc3Sc3ccc(C(F)(F)F)cc32)CC1 [FLUPHENAZINE] | 6.75
C#C[C@]1(O)CC[C@H]2[C@@H]3CCC4=Cc5oncc5C[C@]4(C)[C@H]3CC[C@@]21C [DANAZOL] | 6.31
CCc1oc2ccccc2c1C(=O)c1cc(Br)c(O)c(Br)c1 [BENZBROMARONE] | 2.95
CC(C)OC(=O)C(C)(C)Oc1ccc(C(=O)c2ccc(Cl)cc2)cc1 [FENOFIBRATE] | 3.22

Exercise: Query (molecule): COc1cc(C(=O)NS(=O)(=O)c2ccccc2C)ccc1Cc1cn(C)c2ccc(NC(=O)OC3CCCC3)cc12 [ZAFIRLUKAST] ; field requested: Ki
Key: 0.77
